These entries and their values trace back to BindingDB's records for doi:10.7270/Q2736PBV.

- MEASURED_TARGET: Streptokinase A (Streptococcus pyogenes serotype M1, UniProt P10520)
- ASSAY: viability-normalized secreted streptokinase activity reduction – plasminogen activation absorbance, OD405, dose response (AID 1914)
pEC50: −log10 of the molar value.
OBSERVABLE: pEC50

compound="CCc1ccc2[nH]c(=O)c(C3c4ccc5cccnc5c4OC(=N)C3C#N)cc2c1 (centres undefined)" observable=pEC50 reported_measurement="< 3.82"
compound="C=CCn1c(SCC(=O)C(C#N)C(C)=N)nc2sc(C)c(C)c2c1=O (centres undefined)" observable=pEC50 reported_measurement="< 3.82"
compound="Cc1ccc(SCC(=O)C(C#N)c2nc3ccccc3s2)cc1 (centres undefined)" observable=pEC50 reported_measurement="< 3.82"

Recorded pEC50 for Cc1cc(C)nc(N=NCc2cc(Br)ccc2O)n1 with Streptokinase A (Streptococcus pyogenes serotype M1, UniProt P10520), please?
< 3.82

What pEC50 appears in the records for this compound with Streptokinase A (Streptococcus pyogenes serotype M1, UniProt P10520)? CCCCCCC1=Cc2c/c(=C3/NN=C(c4ccccc4)O3)c(=O)oc2=CC1=O [MLS000068623]
< 3.82

* * *

- MEASURED_TARGET: Streptokinase A (Streptococcus pyogenes serotype M1, UniProt P10520)
- Sequence (P10520 whole entry): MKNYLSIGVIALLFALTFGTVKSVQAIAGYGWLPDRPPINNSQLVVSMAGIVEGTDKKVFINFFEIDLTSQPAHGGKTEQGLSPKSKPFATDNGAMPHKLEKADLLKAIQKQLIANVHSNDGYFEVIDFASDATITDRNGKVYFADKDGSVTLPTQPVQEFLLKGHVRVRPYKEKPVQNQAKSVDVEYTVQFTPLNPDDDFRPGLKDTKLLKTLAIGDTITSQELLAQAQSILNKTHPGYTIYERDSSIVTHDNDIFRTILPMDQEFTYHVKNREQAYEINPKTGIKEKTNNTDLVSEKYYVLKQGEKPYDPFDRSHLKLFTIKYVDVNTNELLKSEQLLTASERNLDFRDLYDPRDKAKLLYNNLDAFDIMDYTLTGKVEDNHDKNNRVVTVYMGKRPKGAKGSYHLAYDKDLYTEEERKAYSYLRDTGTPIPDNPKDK
- ASSAY: viability-normalized secreted streptokinase activity reduction – plasminogen activation absorbance, OD405, dose response (AID 1914)
pEC50: −log10 of the molar value.
OBSERVABLE: pEC50

Worked cases, answers included:
molecule="CCOC(=O)c1sc(N2C(=O)C(=O)C(C(=O)c3ccco3)C2c2cccc(Cl)c2)nc1C (centres undefined)" reported_measurement="< 3.82"
molecule="O=C1C([N+](=O)[O-])=CC(Cl)=CC1CN=Nc1ccccn1 (centres undefined) [MLS000539830]" reported_measurement=4.96
molecule="CCCc1sc(N=NCc2ccccn2)nc1-c1ccc(F)cc1 [SMR000116776]" reported_measurement="< 3.82"
molecule="CC(C)COC(=O)c1cccc2c1-c1ccccc1C2N=O (centres undefined)" reported_measurement=4.30
molecule="CC1(C)CC(=O)C(C2C3=C(CC(C)(C)CC3=O)Oc3c(Br)cc(Br)cc32)C(=O)C1 (centres undefined)" reported_measurement=4.61
molecule=CCOc1cc(CN=Nc2cccc(C(=O)O)c2)ccc1OC(=O)c1ccccc1 reported_measurement="< 3.82"

Query: pEC50; subject: COc1ccccc1CN=Nc1cc(C)nc(-n2nc(C)cc2C)n1 [SMR000212744]
< 3.82

Consider the molecule shown here: O=C1C2C(=NC(=S)NC2c2ccc(Cl)cc2)NC(c2ccc(Cl)cc2)N1c1ccc(Cl)cc1 (centres undefined) [SMR000155440] What is its recorded pEC50?
< 3.82

Recorded pEC50 for Cc1ccc(C(=O)C2C(=O)C(=O)N(Cc3ccco3)C2c2cccc(Br)c2)o1 (centres undefined) , please?
< 3.82

* * *

- MEASURED_TARGET: Streptokinase A (Streptococcus pyogenes serotype M1)
- Sequence (P10520 whole entry): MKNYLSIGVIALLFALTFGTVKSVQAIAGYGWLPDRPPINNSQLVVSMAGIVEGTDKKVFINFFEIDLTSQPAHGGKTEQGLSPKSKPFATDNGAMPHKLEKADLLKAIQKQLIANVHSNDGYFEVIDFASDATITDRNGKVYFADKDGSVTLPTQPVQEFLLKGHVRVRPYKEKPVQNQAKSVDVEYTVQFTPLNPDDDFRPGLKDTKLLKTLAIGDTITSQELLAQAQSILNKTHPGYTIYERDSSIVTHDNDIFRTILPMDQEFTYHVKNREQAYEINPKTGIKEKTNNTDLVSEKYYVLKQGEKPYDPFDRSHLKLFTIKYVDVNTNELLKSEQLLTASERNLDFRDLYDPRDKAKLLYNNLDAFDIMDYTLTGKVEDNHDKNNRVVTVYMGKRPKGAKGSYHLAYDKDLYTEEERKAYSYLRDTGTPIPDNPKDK
- ASSAY: viability-normalized secreted streptokinase activity reduction – plasminogen activation absorbance, OD405, dose response (AID 1914)
pEC50: −log10 of the molar value.
OBSERVABLE: pEC50

Sample records with pEC50:
compound=Oc1nc(Nc2ccc(Cl)cc2)sc1Cc1cccc(Cl)c1Cl measured_target="Streptokinase A (Streptococcus pyogenes serotype M1)" reported_measurement=3.88
compound=CC(NNC(=O)c1cc2ccccc2cc1O)=C1C(=O)c2ccccc2C1=O measured_target="Streptokinase A (Streptococcus pyogenes serotype M1)" reported_measurement="< 3.82"
compound=COc1cc(CN=Nc2ncnc3sc4c(c23)CCC4)ccc1O measured_target="Streptokinase A (Streptococcus pyogenes serotype M1)" reported_measurement=5.30
compound=COc1ccc2nc(-n3c(O)c[nH]c3=S)sc2c1 measured_target="Streptokinase A (Streptococcus pyogenes serotype M1)" reported_measurement="< 3.82"
compound="CC1CC(C)(C)N2C(=O)/C(=N\\NC(N)=S)c3cccc1c32 (stereo not given)" measured_target="Streptokinase A (Streptococcus pyogenes serotype M1)" reported_measurement="< 3.82"

pEC50 for COc1ccc(CN=Nc2cc(C)nc(-n3nc(C)cc3C)n2)c(OC)c1 ?
< 3.82

Bench note: what pEC50 did C=CCOC(=O)C1=C(C)N=C(SCC)C(C#N)C1c1ccc(Cl)cc1 (stereo not given) show?
5.08

Please give the measured pEC50 for this compound: CCOc1cc(CN=Nc2cc(C)nc(-n3nc(C)cc3C)n2)ccc1O
< 3.82

Please report the recorded pEC50 for COC1=CC([N+](=O)[O-])=CC(/C=N/NC(=O)c2cc(-c3ccccc3)nc3ccccc23)C1=O (stereo not given) .
< 3.82

Given Fc1ccc(Br)cc1C1CC(c2ccc(Br)s2)=Nc2ncnn21 (stereo not given) , state its recorded pEC50.
< 3.82

* * *

- MEASURED_TARGET: Streptokinase A (Streptococcus pyogenes serotype M1, UniProt P10520)
- ASSAY: viability-normalized secreted streptokinase activity reduction – plasminogen activation absorbance, OD405, dose response (AID 1914)
pEC50: −log10 of the molar value.
Overview of recorded pEC50 for various molecules

Here is how some molecules turned out for pEC50.
molecule=CCc1ccc2c(c1)=C(NNc1nc(-c3ccccc3)cs1)C(=O)N=2 observable=pEC50 reported_measurement="< 3.82"
molecule="Cc1cccc(NC(=O)C2=C(N)C(C(=O)N3CCOCC3)/C(=N/c3c(C)cccc3C)S2)c1 (centres undefined)" observable=pEC50 reported_measurement=5.48

Please give the measured pEC50 for this molecule: CN1C(=O)C(=NNc2nc(-c3ccccc3)cs2)c2ccccc21
5.15

Look up pEC50: COc1ccc(C(=O)Oc2ccc(C(C)=O)cc2)c(OC)c1 [(4-acetylphenyl) 2,4-dimethoxybenzoate]
< 3.82

Param item = CC1=CC(C)(C)N2C(=O)/C(=N\N)c3c(C)c(C)cc1c32 ; retrieve measured pEC50.
4.79

If you can, please state the reported pEC50 value of Cc1ccc(-c2nn(-c3ccccc3)cc2CN=O)cc1 .
< 3.82

pEC50 lookup needed for CCCCCCCn1[nH]c(C)c(C(=O)c2ccccc2)c1=O , thanks.
< 3.82

Record request: pEC50 value, item CCCOc1ccc(C(=O)C2C(=O)C(=O)N(c3ccccn3)C2c2ccc(OC)cc2)cc1C (centres undefined)
3.99

Query: pEC50; subject: O=C(CC1=NC2(CCCC2)Cc2ccccc21)C(=O)NN=Cc1ccccc1O
< 3.82

Which value of pEC50 has been reported for O=[N+]([O-])c1cccc(CN=Nc2nc(N3CCCCC3)nc(N3CCCCC3)n2)c1 in the records?
4.40

Any idea what its pEC50 is? The molecule is O=C1C2=C3C(=C/C1=C\NNC(=O)c1ccccc1O)CCCN3CCC2
< 3.82

Recorded pEC50 for O=C1N=c2ccccc2=C1NNC(=S)NCCc1ccccc1 , please?
< 3.82

Param item = Cc1[nH]c2ccccc2c1CN=Nc1nc2ccccc2[nH]1 ; retrieve measured pEC50.
< 3.82

Using the record for Oc1nc(N=NCc2cccs2)sc1Cc1ccc(Cl)c(Cl)c1 , report its pEC50.
< 3.82

I am curious: what pEC50 value has been reported for C=c1c(C#N)c(N)[nH]c2c(C#N)c(C)c(=Cc3ccc(C)cc3)c1=2 ?
4.91

pEC50 lookup needed for N#CC(C(=O)CCl)c1nc2c(s1)CCc1ccccc1-2 (centres undefined) , thanks.
< 3.82
